# target.or.system: Chromo domain-containing protein 1 (Saccharomyces cerevisiae (strain ATCC 204508 / S288c) (Baker's yeast)) (UniProt P32657)
# Sequence (P32657 whole entry, the tested form may be a part): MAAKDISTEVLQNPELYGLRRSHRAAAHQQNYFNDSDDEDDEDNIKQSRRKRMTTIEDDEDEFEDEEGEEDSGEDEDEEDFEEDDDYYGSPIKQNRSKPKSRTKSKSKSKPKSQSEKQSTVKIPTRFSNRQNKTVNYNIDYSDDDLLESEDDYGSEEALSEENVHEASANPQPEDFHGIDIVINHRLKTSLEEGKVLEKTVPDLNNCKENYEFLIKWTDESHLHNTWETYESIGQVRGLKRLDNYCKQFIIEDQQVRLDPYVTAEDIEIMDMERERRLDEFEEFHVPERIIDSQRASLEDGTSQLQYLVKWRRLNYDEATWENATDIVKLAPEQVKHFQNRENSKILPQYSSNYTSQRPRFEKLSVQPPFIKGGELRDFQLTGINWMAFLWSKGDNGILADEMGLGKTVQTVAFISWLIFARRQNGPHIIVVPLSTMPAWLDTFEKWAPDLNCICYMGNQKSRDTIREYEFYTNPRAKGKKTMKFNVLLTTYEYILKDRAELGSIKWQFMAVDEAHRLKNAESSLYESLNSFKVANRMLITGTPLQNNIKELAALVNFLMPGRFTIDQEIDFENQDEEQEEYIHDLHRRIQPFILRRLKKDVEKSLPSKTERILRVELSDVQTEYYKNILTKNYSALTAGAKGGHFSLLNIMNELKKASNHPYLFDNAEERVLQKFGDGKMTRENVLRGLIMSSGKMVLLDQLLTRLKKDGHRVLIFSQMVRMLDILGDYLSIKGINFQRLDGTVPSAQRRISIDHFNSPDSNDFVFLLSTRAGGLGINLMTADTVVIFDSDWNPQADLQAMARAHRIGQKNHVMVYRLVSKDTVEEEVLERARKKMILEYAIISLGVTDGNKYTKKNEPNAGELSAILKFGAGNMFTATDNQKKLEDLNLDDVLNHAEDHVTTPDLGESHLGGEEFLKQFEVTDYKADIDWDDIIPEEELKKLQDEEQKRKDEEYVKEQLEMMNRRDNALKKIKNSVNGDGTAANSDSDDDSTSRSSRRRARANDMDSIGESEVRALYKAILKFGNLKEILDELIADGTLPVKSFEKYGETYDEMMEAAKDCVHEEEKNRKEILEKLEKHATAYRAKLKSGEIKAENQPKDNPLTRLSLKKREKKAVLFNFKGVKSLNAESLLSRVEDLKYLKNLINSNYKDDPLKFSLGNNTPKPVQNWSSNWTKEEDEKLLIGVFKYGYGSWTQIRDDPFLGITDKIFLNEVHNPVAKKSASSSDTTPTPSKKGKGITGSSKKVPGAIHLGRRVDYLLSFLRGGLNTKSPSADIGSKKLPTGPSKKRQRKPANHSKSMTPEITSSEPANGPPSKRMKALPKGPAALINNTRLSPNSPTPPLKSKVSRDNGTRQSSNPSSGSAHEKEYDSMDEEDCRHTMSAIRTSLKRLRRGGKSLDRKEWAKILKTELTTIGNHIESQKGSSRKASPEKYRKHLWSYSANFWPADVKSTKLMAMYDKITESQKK
# test.protocol: ScCHD-1 Enzyme Inhibition Assay; further: in the data most compounds retested in dose-response had high values
# Format: functional
# Set-up: scale not given: direction of the effect not stated beside the values
# assay.conditions: 30 µM
measurement.kind: Percent Effect (%)
Numbers only; they are read as %.

Query (compound): Cn1ccnc1COc1ccc(CO)cc1 ; field requested: Percent Effect
-8.46

Okay, and COc1cccc(CN(C)C(=O)CN2CCN(CCO)CC2)c1 ?
-7.41

Okay, and N#Cc1ccc(C(=O)NCCCNc2ccc(C(F)(F)F)cn2)cc1 ?
-10.9

Okay, and COc1c(CNCC(c2cccc(F)c2)N(C)C)c(C(C)C)nn1C (configuration not stated) ?
-5.27

Okay, and O=C(c1cccc(Cl)c1)N1CCCn2c(CN3CCCCC3)nnc2C1 ?
-2.51

Okay, and CCOC1CCN(C(=O)c2c(Cl)c3ccccc3n2C)CC1 ?
-4.88

Okay, and COc1ccc(C2CCCN2C(=O)CCNc2ncccn2)cc1 (configuration not stated) ?
-1.55

Okay, and Cc1cc(C)nc(NC(=O)C(C)Oc2ccc3c(c2)OCO3)n1 (configuration not stated) ?
-2.76

Okay, and N#Cc1cccc(CS(=O)(=O)NCCC(O)c2ccccc2)c1 (configuration not stated) ?
-6.38

Okay, and CCc1nc(CN2CCCC(NCc3cnn(C(C)(C)C)c3)C2)no1 (configuration not stated) ?
-0.901

Okay, and CCN(CC1CN(Cc2ncc(C)o2)CCO1)c1cccnn1 (configuration not stated) ?
-0.756

Okay, and COc1cccc2c1ccn2CCC(=O)N1CCCC(C(=O)O)C1 (configuration not stated) ?
-6.61

----------
# Test system: Trypanosoma cruzi
# test.protocol: Trypanosoma cruzi phosphomannomutase and mannose-1-phosphate guanylyltransferase assay
# Type: functional
# Design: scale not given: direction of the effect not stated beside the values
# assay.conditions: 10 µM
measurement.kind: Percent Effect (%)
Numbers only; they are read as %.

Query (compound): CCNC(=O)N(C)C(c1cccc(F)c1)c1ccccn1 (configuration not stated) ; field requested: Percent Effect
5.43

Okay, and CN1CCCN(C(=O)NCc2csc(Br)c2)CC1 ?
0.0929

Okay, and Cc1cccc(CNCc2c(C(C)C)nn(C)c2N2CCOCC2)n1 ?
-1.57

Okay, and Cc1cnn(CCC(=O)N2C[C@H]3CC[C@@H]2CN(CC(=O)N(C)C)C3)c1 ?
7.34

Okay, and CCOc1ccc(Cl)cc1CNCCCn1ccnc1 ?
-5.5

Okay, and Cc1cnn(CC2CN(c3ncnc4ccsc34)CCO2)c1 (configuration not stated) ?
6.05

Okay, and CSc1ccc(NS(=O)(=O)c2cnn(C)c2)cn1 ?
3.57

Okay, and Cn1cc(N2CCCC(NCc3cccc4c3OCCCO4)C2)cn1 (configuration not stated) ?
0.472

Okay, and O=S(=O)(c1ccccc1)N1CCC2(CCCN2CC2CCCC2)C1 (configuration not stated) ?
-0.489

Okay, and Cc1nn(C)c(N(C)C)c1CNCC(O)c1ccccc1 (configuration not stated) ?
-4.31

Okay, and O=C(Cc1ccccn1)N1CCN(C(=O)c2cccc3[nH]ncc23)CC1 ?
-0.103

Okay, and COc1ccc(NC(=O)N2CCCC2c2ccco2)cc1OC (configuration not stated) ?
-4.24

----------
# target.or.system: Protein translocase subunit SecA (Escherichia coli (strain K12))
# test.protocol: Assay to Identify E. coli SecA ATPase Inhibitors
# Assay type: functional
# Design: scale not given: direction of the effect not stated beside the values
# assay.conditions: 30 µM
Measured potencies and affinities stand elsewhere.
measurement.kind: Percent Effect

Query (molecule): CCC(C)c1noc(C2CCN(C(=O)c3cccnc3)CC2)n1 (stereo unspecified) ; field requested: Percent Effect
-3.05%

Okay, and CCC(=O)NCC(=O)NCc1cc(Br)ccc1OC(F)F ?
-3.84%

Okay, and CC(C)(O)CN1CCN(C(=O)c2cc3ccccc3c(=O)[nH]2)CC1 ?
0.132%

Okay, and Cc1nc(CN2C(=O)C[C@H]3[C@H]2CCN3C2CCOCC2)cs1 ?
-2.26%

Okay, and CC(C(=O)NCc1cccc(N2CC=CC2)c1)n1cccn1 (stereo unspecified) ?
-6.41%

Okay, and Cc1nc(C)n(CC2CCCCN2CC(=O)N(C)Cc2ccco2)n1 (stereo unspecified) ?
-1.21%

Numbers sourced from ChEMBL document CHEMBL3988442.
